- run description: inhibitors of intracellular T. cruzi replication, confirmation, NIH3T3 host cells, beta-gal luminescence (AID 2044);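 further: intracellular parasites grown in NIH/3T3 mouse fibroblasts as host cells; luminescent beta-galactosidase reporter signal from transgenic T. cruzi replicating inside host cells; inhibitors lower the luminescence signal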
- Type: functional, cell-based
The source made the active and inactive calls.
# EC50 annotations

compound	EC50
CC1CCCCN1c1nc(-c2ccncc2)nc2ccccc12 (stereo not drawn)	0.576 µM (active)
COc1ccc(Cl)cc1N=C(S)NCCC(c1ccccc1)c1ccccc1	1.44 µM (active)
Clc1ccccc1-c1ncc2ccccn12	2.45 µM (active)

* * *

Form: system (Cytochrome P450 2D6 (Homo sapiens)), quantity (AC50), values below.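 Further: CYP2D6 member of a cytochrome P450 panel assay.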

smi	AC50
Cc1ccc(CNC(=O)Cn2c(=O)oc3ccccc32)o1	20 µM (inconclusive)
Cc1ccccc1-n1cnc2cc(NCc3cccs3)ccc21	2.24 µM (inconclusive)
Cc1c(Cl)c(S(N)(=O)=O)cc2c1N=CNS2(=O)=O	3.98 µM (inconclusive)
CN(C)c1ncc2nc(-c3ccc(Cl)cc3)c(=O)n(-c3ccccc3)c2n1	0.631 µM (inconclusive)
CCOC(=O)c1c(C)n(C)c2ccc(OC)c(NC(=O)CN3CCCCC3)c12	20 µM (inconclusive)
COc1ccccc1CNc1ncnc2ccc(-c3ccccc3OC)cc12	12.6 µM (inconclusive)
COc1ccccc1-c1cncnc1-n1ccnc1	25.1 µM (inconclusive)
COc1ccc(OCCn2c(C)c(/C=N/n3cnnc3)c3ccccc32)cc1	3.98 µM (inconclusive)
Nc1ccccc1SCc1csc(-c2ccc(Cl)cc2)n1	3.16 µM (inconclusive)
CCNc1ncc2nc(-c3cc(F)cc(F)c3)c(=O)n(-c3ccc(OC)cc3)c2n1	0.158 µM (inconclusive)

* * *

Below, each of the compounds is paired with its reported EC50 value.
- study system: Heat shock factor protein 1 (Mus musculus, UniProt P38532)
- Sequence (P38532 whole entry): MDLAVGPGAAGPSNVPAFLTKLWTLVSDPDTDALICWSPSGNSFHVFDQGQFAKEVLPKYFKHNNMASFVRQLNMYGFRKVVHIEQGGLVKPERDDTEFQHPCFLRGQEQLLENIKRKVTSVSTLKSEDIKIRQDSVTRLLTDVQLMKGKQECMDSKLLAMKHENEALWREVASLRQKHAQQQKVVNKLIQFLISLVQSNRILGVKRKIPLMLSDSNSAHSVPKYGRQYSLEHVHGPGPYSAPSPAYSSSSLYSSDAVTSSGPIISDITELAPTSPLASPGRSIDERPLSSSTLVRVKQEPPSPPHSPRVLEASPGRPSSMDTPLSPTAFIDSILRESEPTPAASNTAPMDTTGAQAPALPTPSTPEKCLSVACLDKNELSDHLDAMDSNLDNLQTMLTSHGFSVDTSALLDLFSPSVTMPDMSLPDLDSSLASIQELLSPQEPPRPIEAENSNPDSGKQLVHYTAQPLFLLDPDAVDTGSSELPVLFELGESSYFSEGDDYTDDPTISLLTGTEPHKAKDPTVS
- run description: inhibition of MG132-induced HSE-luciferase signal, confirmation, cell-based, NIH3T3, luminescence, dose retest (AID 2382);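 further: NIH3T3 fibroblasts with HSF1-driven luciferase reporter stressed by proteasome inhibitor MG132; luminescence from HSF1-driven luciferase expression after 8 hours of MG132 stress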
- Assay type: functional
Calls of active or inactive are those of the source.
parameter: EC50

compound	parameter	assay result
CC1CCN(CC(=O)c2cccs2)CC1	EC50	> 195 µM (not active)
Cc1cc(/C=C2\SC(=S)N(Cc3ccco3)C2=O)c(C)n1-c1ccccc1	EC50	1.57 µM (active)
CCC(C)c1ccc(OCc2ccc(C(=O)O)o2)cc1 (configuration not stated)	EC50	18.7 µM (inconclusive)
O=C(CN1CCCC1)Nc1c2c(cc3c1CCC3)CCC2	EC50	> 195 µM (not active)
CC1(C)Cc2ccccc2-c2n[nH]c(=S)n21	EC50	> 195 µM (not active)
Nc1ccc(S(=O)(=O)N2CCC(Cc3ccccc3)CC2)cc1	EC50	> 195 µM (not active)
Cc1ccc(NC(=S)Nc2cccc3ccccc23)cc1	EC50	> 195 µM (not active)
